tested on: PPARg:RXRa 270nM:90nM, anti-RXR (NR concentration 270 nM, RXRa partner concentration 90 nM); test: PBM binding z-score (relative to random genomic background probes); higher = stronger binding; sequences stand for … in GC…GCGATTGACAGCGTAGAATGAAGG
Binned PBM binding z-score; ranges: L = under 2, M = from 2 up to 3, H = 3 and over

Exercise: read the entry `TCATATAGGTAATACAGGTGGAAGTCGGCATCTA` and state which class it falls under.
M

Exercise: read the entry `GGAACGAGGGCAAAGTTGCTAGCATCTGTCGACG` and state which class it falls under.
H

Exercise: read the entry `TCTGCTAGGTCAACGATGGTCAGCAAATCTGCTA` and state which class it falls under.
H

Exercise: read the entry `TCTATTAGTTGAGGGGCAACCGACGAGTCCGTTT` and state which class it falls under.
L

Exercise: read the entry `GCTATTAGTTGAAAGGGCAACCGGATGATTCTCG` and state which class it falls under.
H

Exercise: read the entry `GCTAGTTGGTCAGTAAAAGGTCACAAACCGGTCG` and state which class it falls under.
H

Exercise: read the entry `TGAATGAGGTTATAAGATCAAGGAACGTTGCAAA` and state which class it falls under.
M

Exercise: read the entry `GCGACTGGGGCAAAGCAGGTTAGCATAAGGTTGG` and state which class it falls under.
L

Exercise: read the entry `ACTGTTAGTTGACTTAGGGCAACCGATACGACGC` and state which class it falls under.
L

====

system: VDR:RXRa (NR concentration 270 nM, RXRa partner concentration 90 nM); experiment: PBM binding z-score (relative to random genomic background probes); higher = stronger binding; sequences stand for … in GC…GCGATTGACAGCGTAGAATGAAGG
Provide the reported PBM binding z-score of each item.
Just the number, please, no unit attached.

Respond only with PBM binding z-score recorded for `AACTCTAGGTAAAGTTCAGTGAAAGATCGATAGA`
1.15

Respond only with PBM binding z-score recorded for `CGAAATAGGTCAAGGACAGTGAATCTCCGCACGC`
2.46

Respond only with PBM binding z-score recorded for `CCTACTGGGTCAAGGTCATTGATCAGTCAAAGCA`
4.84

Respond only with PBM binding z-score recorded for `CAAACCAGGTCACCGGAAGGTCAAAGTCCGCATG`
6.39

Respond only with PBM binding z-score recorded for `CCTACTGGGCCATTCAGAGGTCATTTATCATATG`
3.73

Respond only with PBM binding z-score recorded for `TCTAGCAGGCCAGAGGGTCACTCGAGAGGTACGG`
1.39

Respond only with PBM binding z-score recorded for `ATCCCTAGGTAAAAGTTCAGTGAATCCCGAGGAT`
0.958

Respond only with PBM binding z-score recorded for `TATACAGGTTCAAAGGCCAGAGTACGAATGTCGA`
3.76

Respond only with PBM binding z-score recorded for `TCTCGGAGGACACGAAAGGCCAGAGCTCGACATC`
-0.308

Respond only with PBM binding z-score recorded for `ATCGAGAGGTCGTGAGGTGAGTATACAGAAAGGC`
3.3

Respond only with PBM binding z-score recorded for `ATCTCTAGGTAAAGTTAAGTGAAAGATCGATAGA`
0.476

Respond only with PBM binding z-score recorded for `TCTTGTAGATCATTAGAGGTTAAGAAAGTGCGCT`
2.09

====

system: RARa:RXR (NR concentration 270 nM, RXRa partner concentration 90 nM); experiment: PBM binding z-score (relative to random genomic background probes); higher = stronger binding; sequences stand for … in GC…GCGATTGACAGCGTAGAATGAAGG
recordedEndpoint: PBM binding z-score
Just the number, please, no unit attached.

Look up and report measured PBM binding z-score (RARa:RXR (NR concentration 270 nM, RXRa partner concentration 90 nM)) for the following sequence: `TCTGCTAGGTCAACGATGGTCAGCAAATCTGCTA`
2.12

Look up and report measured PBM binding z-score (RARa:RXR (NR concentration 270 nM, RXRa partner concentration 90 nM)) for the following sequence: `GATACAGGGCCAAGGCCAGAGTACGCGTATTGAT`
-0.762

Look up and report measured PBM binding z-score (RARa:RXR (NR concentration 270 nM, RXRa partner concentration 90 nM)) for the following sequence: `CCTGACGGGTCACGAGGTTATAGCACGACGAGCG`
5.48

Look up and report measured PBM binding z-score (RARa:RXR (NR concentration 270 nM, RXRa partner concentration 90 nM)) for the following sequence: `TCCGCTAGGTCAACGATGGTCAGCTAATCTGCTA`
1.69

Look up and report measured PBM binding z-score (RARa:RXR (NR concentration 270 nM, RXRa partner concentration 90 nM)) for the following sequence: `ATATGTAGGTTAAGGGTCATTCCGGTTGGTTCGC`
5.86

Look up and report measured PBM binding z-score (RARa:RXR (NR concentration 270 nM, RXRa partner concentration 90 nM)) for the following sequence: `CCTACTGGGCCCCGAAAGGTCATTGATTCAGTGA`
5.15

====

test system: THRa:RXRa (NR concentration 90 nM, RXRa partner concentration 90 nM); assay: PBM binding z-score (relative to random genomic background probes); higher = stronger binding; sequences stand for … in GC…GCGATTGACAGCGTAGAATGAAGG
Provide the reported PBM binding z-score of each item.
Just the number, please, no unit attached.

Respond only with PBM binding z-score recorded for `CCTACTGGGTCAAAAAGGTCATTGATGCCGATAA`
3.76

Respond only with PBM binding z-score recorded for `CCAGATAGGTGAGAAGGTAACTCAGCCTCGATTA`
0.177

Respond only with PBM binding z-score recorded for `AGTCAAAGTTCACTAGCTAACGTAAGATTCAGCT`
1.4

Respond only with PBM binding z-score recorded for `ATATGTAGGTTAGCTGGGGTCATTCAAACTAGGC`
5.16

Respond only with PBM binding z-score recorded for `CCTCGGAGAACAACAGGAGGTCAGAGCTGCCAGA`
2.02

Respond only with PBM binding z-score recorded for `CCTACTGGGCCAAAGGTCATTGAGTCCAATGCTC`
3.57

Respond only with PBM binding z-score recorded for `TCTTGTAGATCAACAAGAGGTTAAGAAAGATCGA`
1.22

Respond only with PBM binding z-score recorded for `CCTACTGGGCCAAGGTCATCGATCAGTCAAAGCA`
3.68

Respond only with PBM binding z-score recorded for `CAAACTAGGTCAAACGTCAAAGTCGAGCCAACCA`
3.13

Respond only with PBM binding z-score recorded for `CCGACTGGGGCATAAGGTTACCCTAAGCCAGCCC`
1.79

Respond only with PBM binding z-score recorded for `TCAGATAGGTAAACAGGTGAAAGTCCGTAAGTTA`
0.664

Respond only with PBM binding z-score recorded for `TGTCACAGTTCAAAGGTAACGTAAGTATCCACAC`
2.74

====

tested on: LXRb homodimer (NR concentration 270 nM); test: PBM binding z-score (relative to random genomic background probes); higher = stronger binding; sequences stand for … in GC…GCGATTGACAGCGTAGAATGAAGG
Provide the reported PBM binding z-score of each item.
Just the number, please, no unit attached.

Respond only with PBM binding z-score recorded for `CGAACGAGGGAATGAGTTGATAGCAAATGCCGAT`
-0.729

Respond only with PBM binding z-score recorded for `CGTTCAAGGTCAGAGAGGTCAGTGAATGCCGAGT`
0.61

Respond only with PBM binding z-score recorded for `CGAACTAGGTCAAGGACAGTTAATCTCCGCACGC`
-0.0529

Respond only with PBM binding z-score recorded for `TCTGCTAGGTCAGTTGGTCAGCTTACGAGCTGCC`
0.216

Respond only with PBM binding z-score recorded for `ACAAGTTGGTCAGCTGAGGTCACACACAATTCGG`
0.506

Respond only with PBM binding z-score recorded for `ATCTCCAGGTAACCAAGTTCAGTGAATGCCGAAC`
0.946

Respond only with PBM binding z-score recorded for `CCTCGGAGGACAACAGGAGGTCAGAGCTGCCAGA`
-0.474

Respond only with PBM binding z-score recorded for `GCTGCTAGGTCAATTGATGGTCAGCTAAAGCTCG`
0.292

Respond only with PBM binding z-score recorded for `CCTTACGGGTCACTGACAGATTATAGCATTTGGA`
0.248

Respond only with PBM binding z-score recorded for `AGAATGATGTTACCAAAGATCAGGGAAACGCTTG`
-0.38

Respond only with PBM binding z-score recorded for `CCTGCTATGTCAATGGTCAGCTAAAGCAGCTCGC`
-0.272

Respond only with PBM binding z-score recorded for `TCATATAGGTAATACAAGTGAAAGTCGGCATCTA`
0.185

====

test system: RARa homodimer (NR concentration 270 nM); experiment: PBM binding z-score (relative to random genomic background probes); higher = stronger binding; sequences stand for … in GC…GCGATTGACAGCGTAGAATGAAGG
Binned PBM binding z-score; ranges: class A = under 0.1, class B = from 0.1 up to 1, class C = 1 and over

Exercise: read the entry `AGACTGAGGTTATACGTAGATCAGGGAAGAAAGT` and state which class it falls under.
class A

Exercise: read the entry `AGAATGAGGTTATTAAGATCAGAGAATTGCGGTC` and state which class it falls under.
class B

Exercise: read the entry `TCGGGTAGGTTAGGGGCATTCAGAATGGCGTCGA` and state which class it falls under.
class B

Exercise: read the entry `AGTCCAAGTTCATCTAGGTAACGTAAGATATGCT` and state which class it falls under.
class A

Exercise: read the entry `CTCGAAAGGTCGGTTGAGGAGAGTATACGGATAA` and state which class it falls under.
class A

Exercise: read the entry `CCTAATGGGCCAAGGTCATTGATCAGTCAAAGCA` and state which class it falls under.
class B

Exercise: read the entry `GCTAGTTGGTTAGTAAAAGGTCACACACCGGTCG` and state which class it falls under.
class C

Exercise: read the entry `CCTTACGGGTCACGCCAGGTTATAGCATCGGAGT` and state which class it falls under.
class C

Exercise: read the entry `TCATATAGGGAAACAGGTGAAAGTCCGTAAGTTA` and state which class it falls under.
class C

Exercise: read the entry `ATTTCTAGGTAAGACTCAGTTCAGTGAAGAACGC` and state which class it falls under.
class C

Exercise: read the entry `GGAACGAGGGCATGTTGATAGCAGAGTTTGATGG` and state which class it falls under.
class B
